Recorded values, source patent US20220395553A1.

As shown below, each of these binders has a reported Percent Inhibition of CXCR4/CXCL12 Induced p-MEK (100 nM Test Article) value.
Biological target: CXCR4 on cultured U937 and Jurkat cells (human, UniProt P61073 1-352)
Sequence (P61073 whole entry): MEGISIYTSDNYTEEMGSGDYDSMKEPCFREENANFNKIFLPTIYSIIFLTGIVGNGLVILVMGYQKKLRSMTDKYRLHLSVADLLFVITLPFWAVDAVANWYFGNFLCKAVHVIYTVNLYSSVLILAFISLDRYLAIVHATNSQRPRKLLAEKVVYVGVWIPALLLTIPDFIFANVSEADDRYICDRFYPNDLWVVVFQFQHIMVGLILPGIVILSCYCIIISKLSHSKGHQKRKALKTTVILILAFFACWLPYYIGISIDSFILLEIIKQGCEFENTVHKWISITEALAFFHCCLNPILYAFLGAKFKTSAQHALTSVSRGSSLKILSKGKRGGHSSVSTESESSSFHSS
Assay: cell-based or functional assay
Square brackets hold non-standard residues; d marks the D form. Ends that are not written are not given here.
Lab book: enter the figure in %, no units written.

Recorded Percent Inhibition of CXCR4/CXCL12 Induced p-MEK (100 nM Test Article), per entry:
[
  {
    "BINDER": "LRRYHHSVRSSLRPYTK [SEQ ID NO: 3]",
    "NUMERIC_VALUE": 29
  },
  {
    "BINDER": "LDRYHHSVRSSLRPYTK [SEQ ID NO: 7]",
    "NUMERIC_VALUE": 60
  },
  {
    "BINDER": "LRRYHHSVRSTLRPYTK [SEQ ID NO: 71]",
    "NUMERIC_VALUE": 56
  },
  {
    "BINDER": "LERYHHSVRSSLRPYSK [SEQ ID NO: 75]",
    "NUMERIC_VALUE": 60
  },
  {
    "BINDER": "LERFHHS[dA]RSSLRPYTK [SEQ ID NO: 55]",
    "NUMERIC_VALUE": 16
  },
  {
    "BINDER": "LERYNHS[dA]RSSLRPYTK [SEQ ID NO: 43]",
    "NUMERIC_VALUE": 5
  }
]

GET /values?readout=Percent Inhibition of CXCR4/CXCL12 Induced p-MEK (100 nM Test Article)&item= MLRRYHHSVRSSLRPYTK [SEQ ID NO: 2]
-1
